Test system: Felis catus
run.description: Inhibition of isoproterenol-induced vasodepressor response in anesthetized cat compound administered as an infusion over a period of 30 mins; further: test concentration or dose not given here
Format: organism-based
assay.conditions: in vivo, iv, 0.5 h
quantity.name: inhibition (INH) (%)
// note: answer is a bare numeric in %

Examples with answers:
- molecule: "COc1ccc(OCCNCC(O)COc2ccccc2)cc1 (centres undefined)"
  inhibition (INH) / %: 0
- molecule: "CC(C)OCCNCC(O)COc1ccccc1[N+](=O)[O-].O=C(O)C(=O)O (centres undefined)"
  inhibition (INH) / %: 0
- molecule: "CC(CNCC(O)COc1ccccc1)Oc1ccccc1 (centres undefined)"
  inhibition (INH) / %: 0
- molecule: "OC(CNCCOc1ccccc1F)COc1ccccc1 (centres undefined)"
  inhibition (INH) / %: 0
- molecule: "Cl.Oc1ccccc1OCCNCC(O)COc1ccccc1 (centres undefined)"
  inhibition (INH) / %: 0
- molecule: "OC(CNCCOc1ccccc1)COc1ccccc1Br (centres undefined)"
  inhibition (INH) / %: 0

So what's the measured inhibition (INH) for this one? COc1ccccc1OCC(O)CNCCOc1ccccc1.O=C(O)C(=O)O (centres undefined) 0

Would you kindly repeat that for COc1cccc(OC)c1OCCNCC(O)COc1ccccc1.O=C(O)C(=O)O (centres undefined) ? 0
